- test_protocol: Inhibition of Bacteroides thetaiotaomicron beta-N-acetylglucosaminidase GH84 using p-nitrophenyl 2-acetamido-2-deoxy-beta-D-glucosaminide substrate at pH 7.0 and 25 degC
recorded_metric: Ki (µM)
Give a bare numeral; the unit µM is implied.

1. CC1=N[C@@H]2[C@@H](O)[C@H](O)[C@@H](CO)O[C@@H]2S1: 0.029

Read the next record carefully.
Please fill in: Ki reported for CC1=N[C@H]2[C@H](O[C@H](CO)C[C@@H]2O)S1 = 1830
